This collection of values is drawn from patent US7799775B2.

TARGET SYSTEM: human 5-HT3 receptor (Homo sapiens)
Construct: purchased BIOLINKS K.K; host or cells: HEK-293 cells (membrane preparation)
Sequence (P46098 24-478): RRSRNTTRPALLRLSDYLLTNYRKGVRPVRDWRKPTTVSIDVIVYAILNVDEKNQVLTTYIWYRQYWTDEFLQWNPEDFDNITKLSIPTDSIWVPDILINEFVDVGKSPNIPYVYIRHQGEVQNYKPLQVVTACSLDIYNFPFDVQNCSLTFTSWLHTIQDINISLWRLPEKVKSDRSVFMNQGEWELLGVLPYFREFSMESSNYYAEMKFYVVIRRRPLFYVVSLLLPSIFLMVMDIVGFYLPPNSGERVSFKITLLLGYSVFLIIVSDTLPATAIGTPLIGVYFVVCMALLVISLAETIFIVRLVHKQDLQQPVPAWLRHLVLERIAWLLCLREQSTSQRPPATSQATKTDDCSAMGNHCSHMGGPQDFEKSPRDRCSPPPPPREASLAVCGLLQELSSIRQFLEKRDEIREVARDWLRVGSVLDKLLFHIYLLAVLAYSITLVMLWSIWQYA
EXPERIMENTAL PROTOCOL: Measurement of affinity to human 5-HT3 receptor (in vitro), [3H]BRL-43694 binding
CONDITIONS USED: test compound 100 nmols/L; [3H]BRL-43694 0.5 nmols/L; HEK-293 cell membrane expressing human 5-HT3 receptor; read-out: Percent Inhibition (%) on Each Receptor's Binding at 10^−7M, 5-HT3
Where a name gives a salt, the structure may show the parent alone.
MEASUREMENT TYPE: inhibition at 0.1 µM (%)

CCCn1c(CCCCN2CCN(c3ccc4ccccc4n3)CC2)nc2c(c1=O)CCCC2    84.7
Cc1cc(N2CCN(CCCCc3nc4c(c(=O)n3C)CCCC4)CC2)nc2ccccc12    93.8
Cc1cc(N2CCN(CCCSc3nc4sc5c(c4c(=O)[nH]3)CCNC5)CC2)nc2ccccc12 [Example 2-20, trihydrochloride]    52.8
NN1Oc2c(sc3c2CCCCCC3)N=C1SCCCN1CCN(c2ccc3ccccc3n2)CC1    79.6
c1cc2ccoc2c(N2CCN3CCCCC3C2)n1 (stereo not shown)    84.9
c1cc2sccc2c(N2CCN3CCC[C@@H]3C2)n1    92.5
CCN1CCN(c2nccc3ccsc23)CC1    82.9
Cc1sc2nc(CCCCN3CCN(c4ccc5ccccc5n4)CC3)[nH]c(=O)c2c1C    96.9
Cn1c(SCCCN2CCN(c3ccc4ccccc4n3)CC2)nc2c(c1=O)CCCC2    90.2
Cc1sc2nc(SCCCN3CCN(c4nc5ccccc5n5cccc45)CC3)n(N)c(=O)c2c1C    82.6
